The origin of these recorded values is patent US8609173B2.

- assay-info: Solubility in buffers and food grade solvents (Table 14)
- Assay type: physicochemical
- condition: organic solvent or mixture; Propylene Glycol (PG)
experimental-readout: solubility (mM)
# output: bare number, implied unit mM

# solubility (compound: CCCNC(=O)C(C)(C)COc1cccc2c1C(N)=NS(=O)(=O)N2 ) is 17.2

====

- assay-info: Solubility in buffers and food grade solvents (Table 14)
- Type: physicochemical
- condition: triacetin, organic solvent or mixture
experimental-readout: solubility
Entry format: amount then unit.

The recorded solubility for entry CCCNC(=O)C(C)(C)COc1cccc2c1C(N)=NS(=O)(=O)N2 equals 1600 µM
